# System: Cystic fibrosis transmembrane conductance regulator (Homo sapiens), P13569 [F508del]
# Sequence (P13569 as listed by the source): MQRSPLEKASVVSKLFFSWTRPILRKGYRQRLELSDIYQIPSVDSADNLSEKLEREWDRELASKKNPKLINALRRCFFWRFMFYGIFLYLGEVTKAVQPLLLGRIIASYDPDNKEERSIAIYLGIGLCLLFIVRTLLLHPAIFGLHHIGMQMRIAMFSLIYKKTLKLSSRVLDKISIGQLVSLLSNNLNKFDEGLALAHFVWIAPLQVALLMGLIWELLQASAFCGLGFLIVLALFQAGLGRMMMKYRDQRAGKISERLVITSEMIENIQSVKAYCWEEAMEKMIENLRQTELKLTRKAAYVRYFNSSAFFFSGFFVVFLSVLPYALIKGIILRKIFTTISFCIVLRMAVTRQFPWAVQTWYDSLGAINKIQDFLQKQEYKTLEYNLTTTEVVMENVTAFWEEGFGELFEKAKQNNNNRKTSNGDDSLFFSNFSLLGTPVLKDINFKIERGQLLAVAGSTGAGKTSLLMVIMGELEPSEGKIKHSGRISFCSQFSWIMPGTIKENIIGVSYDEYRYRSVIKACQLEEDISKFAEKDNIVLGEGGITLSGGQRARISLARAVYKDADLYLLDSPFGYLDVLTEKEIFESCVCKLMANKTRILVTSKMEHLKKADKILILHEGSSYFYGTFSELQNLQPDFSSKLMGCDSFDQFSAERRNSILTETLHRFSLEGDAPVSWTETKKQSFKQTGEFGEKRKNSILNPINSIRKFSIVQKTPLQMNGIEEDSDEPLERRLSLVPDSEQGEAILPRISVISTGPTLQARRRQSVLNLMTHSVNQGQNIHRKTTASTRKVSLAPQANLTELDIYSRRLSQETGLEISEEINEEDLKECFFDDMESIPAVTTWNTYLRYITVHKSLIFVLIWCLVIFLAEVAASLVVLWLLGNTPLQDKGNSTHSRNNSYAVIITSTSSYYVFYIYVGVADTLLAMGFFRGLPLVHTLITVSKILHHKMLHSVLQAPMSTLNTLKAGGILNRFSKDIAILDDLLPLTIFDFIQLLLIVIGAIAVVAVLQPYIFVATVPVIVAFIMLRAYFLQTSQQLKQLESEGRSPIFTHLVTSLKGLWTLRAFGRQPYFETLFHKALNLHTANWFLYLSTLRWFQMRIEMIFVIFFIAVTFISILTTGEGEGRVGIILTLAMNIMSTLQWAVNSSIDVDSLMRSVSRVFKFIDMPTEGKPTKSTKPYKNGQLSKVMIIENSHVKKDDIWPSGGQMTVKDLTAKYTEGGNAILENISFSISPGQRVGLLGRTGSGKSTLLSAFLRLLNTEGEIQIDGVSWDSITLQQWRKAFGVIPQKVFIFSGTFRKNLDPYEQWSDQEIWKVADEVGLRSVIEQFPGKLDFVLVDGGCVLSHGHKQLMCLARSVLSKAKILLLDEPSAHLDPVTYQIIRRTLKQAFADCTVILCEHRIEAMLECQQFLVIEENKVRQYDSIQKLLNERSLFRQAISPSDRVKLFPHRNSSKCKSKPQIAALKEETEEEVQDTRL
# assay: Corrector activity at human CFTR F508 deletion mutant expressed in human A549 cells incubated for 25 mins by YFP-based fluorescence analysis
# Format: cell-based
Activity calls are given as the source filed them. The calls are words filed in the database; no cut-off is given here.
quantity.kind: Emax

In [3]: df
Out[3]:
                                   compound  measured_result
0  NC(=O)CN1CCN(c2nc(-c3cccnc3)nc3c2CN(Cc2ccccc2)CC3)CC1         inactive
1  CC(=O)NC1CCN(c2nc(-c3ccccn3)nc3c2CN(Cc2ccc(Cl)cc2)CC3)CC1            61.7%
2  CN(C)CCN1CCN(c2nc(-c3ccccn3)nc3c2CN(C(=O)c2ccccc2)CC3)CC1         inactive
3  CN(C)CCN1CCN(c2nc(-c3ccncc3)nc3c2CN(Cc2ccccc2)CC3)CC1         inactive
4  CN1CCN(CCCNc2nc(-c3ccncc3)nc3c2CN(Cc2ccccc2)CC3)CC1         inactive
5  CN(C)CCN1CCN(c2nc(-c3ccccn3)nc3c2CN(Cc2ccccc2)CC3)CC1              57%
6  CN(C)CCN1CCN(c2nc(-c3ccccn3)nc3c2CN(S(=O)(=O)c2ccccc2)CC3)CC1         inactive
7  CC(=O)NCCNc1nc(-c2ccccn2)nc2c1CN(Cc1ccc(F)cc1)CC2            44.3%

Consider now this further compound.
Inquiry: Consider the compound `Fc1ccc(CN2CCc3nc(-c4ccccn4)nc(NCCN4CCCC4)c3C2)cc1` and give its measured Emax.
Reply text: 40.6%

The measurements presented in this section are drawn from ChEMBL document CHEMBL3745695.
